Molecular target: PE-labeled human PD-L1-Ig binding to Jurkat cell line over-expressing human PD-1 (Jurkat-PD-1) (Homo sapiens, UniProt Q15116)
Construct: expressed in transfected cells; host or cells: Jurkat
Sequence (Q15116 25-288): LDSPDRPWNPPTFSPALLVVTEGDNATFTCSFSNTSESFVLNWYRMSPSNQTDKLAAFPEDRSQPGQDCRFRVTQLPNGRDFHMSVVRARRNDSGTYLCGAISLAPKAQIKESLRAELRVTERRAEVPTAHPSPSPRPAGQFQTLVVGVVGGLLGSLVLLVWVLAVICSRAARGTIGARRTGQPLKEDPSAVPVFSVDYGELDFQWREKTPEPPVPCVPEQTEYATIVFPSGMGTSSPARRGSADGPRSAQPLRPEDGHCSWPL
Experiment: Jurkat-PD-1 Cell Binding High-Content Screening Assay (CBA): Method 1
Details: Jurkat-hPD-1 cells, PE-labeled PD-L1-Ig 20 nM final; read-out: Jurkat HPDL1 PD1 IC50 (uM) (Method 1)
Bridge positions count the residues as written; N and C are the ends. Square brackets hold non-standard residues; d marks the D form. Peptide text beside a SMILES is read from it. Bip = N[C@@H](Cc1ccc(-c2ccccc2)cc1)C(=O)O; Phe(3-OMe) = COc1cccc(C[C@H](N)C(=O)O)c1; Phe(4-CN) = N#Cc1ccc(C[C@H](N)C(=O)O)cc1; Bta = N[C@@H](Cc1csc2ccccc12)C(=O)O; Cit = NC(=O)NCCC[C@H](N)C(=O)O; NEtAla = CCN[C@@H](C)C(=O)O; NMeA = CN[C@@H](C)C(=O)O; Dab = NCC[C@H](N)C(=O)O
measured.metric: IC50 (µM)
One number for each entry, in µM.

Here are 5 compounds together with their reported answers.
CC(C)C[C@@H]1NC(=O)[C@H](Cc2c[nH]c3ccccc23)NC(=O)[C@H](CC(=O)O)NC(=O)[C@H](Cc2ccc(C#N)cc2)NC(=O)[C@H](Cc2ccccc2)NC(=O)CSC[C@@H](C(=O)NCC(N)=O)NC(=O)[C@H](CO)NC(=O)[C@H](C(C)C)NC(=O)[C@H](CC(C)C)NC(=O)[C@H](CC(N)=O)NC(=O)[C@@H](CC(C)C)NC(=O)[C@H](C)N(C)C(=O)[C@H](C(C)C)NC(=O)[C@H](Cc2ccc(-c3ccccc3)cc2)NC1=O [Compound 1525] ({CH2CO}-F[Phe(4-CN)]DWL[Bip]V[NMeA][dL]NLVSCG-NH2; thioether N-14): 0.03
CCN1C(=O)[C@H](CCCNC(=N)N)NC(=O)[C@H](Cc2ccc(-c3ccccc3)cc2)NC(=O)[C@H](C(C)C)NC(=O)[C@H](Cc2c[nH]c3ccccc23)NC(=O)[C@H](CC(=O)O)NC(=O)[C@H](Cc2ccc(O)cc2)NC(=O)[C@H](CC(N)=O)NC(=O)CSC[C@@H](C(=O)N[C@@H](C)C(N)=O)NC(=O)[C@H]([C@@H](C)O)NC(=O)[C@H](C(C)C)NC(=O)[C@H](CC(C)C)NC(=O)[C@H](CCN)NC(=O)[C@@H](CC(C)C)NC(=O)[C@@H]1C [Compound 1207] ({CH2CO}-NYDWV[Bip]R[NEtAla][dL][Dab]LVTCA-NH2; thioether N-14): 0.07
CC(C)C[C@@H]1NC(=O)[C@H](CCCCN)NC(=O)[C@@H](CC(C)C)NC(=O)[C@H](C)N(C)C(=O)[C@H](CCCNC(N)=O)NC(=O)[C@H](Cc2ccc(-c3ccccc3)cc2)NC(=O)[C@H](C(C)C)NC(=O)[C@H](Cc2c[nH]c3ccccc23)NC(=O)[C@H](CC(=O)O)NC(=O)[C@H](Cc2ccc(O)cc2)NC(=O)[C@H](CC(N)=O)NC(=O)CSC[C@@H](C(=O)N[C@@H](C)C(N)=O)NC(=O)[C@H](CO)NC(=O)[C@H](C(C)C)NC1=O [Compound 1473] ({CH2CO}-NYDWV[Bip][Cit][NMeA][dL]KLVSCA-NH2; thioether N-14): 0.04
CC(C)C[C@@H]1NC(=O)[C@H](CCCCN)NC(=O)[C@@H](CC(C)C)NC(=O)[C@H](C)N(C)C(=O)[C@H](CCCNC(=N)N)NC(=O)[C@H](Cc2ccc(-c3ccccc3)cc2)NC(=O)[C@H](C(C)C)NC(=O)[C@H](Cc2c[nH]c3ccccc23)NC(=O)[C@H](CC(=O)O)NC(=O)[C@H](Cc2ccc(O)cc2)NC(=O)[C@H](CC(N)=O)NC(=O)CSC[C@@H](C(=O)N[C@@H](C)C(N)=O)NC(=O)[C@H]([C@@H](C)O)NC(=O)[C@H](C(C)C)NC1=O [Compound 1269] ({CH2CO}-NYDWV[Bip]R[NMeA][dL]KLVTCA-NH2; thioether N-14): 0.03
CC(C)C[C@@H]1NC(=O)[C@H](CCCNC(=N)N)NC(=O)[C@H](Cc2csc3ccccc23)NC(=O)[C@H](C)N(C)C(=O)[C@H](CCCNC(=N)N)NC(=O)[C@H](Cc2ccc(-c3ccccc3)cc2)NC(=O)[C@H](C(C)C)NC(=O)[C@H](Cc2c[nH]c3ccccc23)NC(=O)[C@H](CC(=O)O)NC(=O)[C@H](Cc2ccc(O)cc2)NC(=O)[C@H](CC(N)=O)NC(=O)CSC[C@@H](C(=O)NCC(N)=O)NC(=O)[C@H](CO)NC(=O)[C@H](C(C)C)NC1=O [Compound 1026] ({CH2CO}-NYDWV[Bip]R[NMeA][Bta]RLVSCG-NH2; thioether N-14): 0.13

Would you mind listing IC50 for each of the following compounds?
1. CC(C)C[C@@H]1NC(=O)[C@H](CCN)NC(=O)[C@@H](CC(C)C)NC(=O)[C@H](C)N(C)C(=O)[C@H](C(C)C)NC(=O)[C@H](Cc2ccc(-c3ccccc3)cc2)NC(=O)[C@H](C(C)C)NC(=O)[C@H](Cc2c[nH]c3ccccc23)NC(=O)[C@H](CC(=O)O)NC(=O)[C@H](Cc2ccc(O)cc2)NC(=O)[C@H](CCC(N)=O)NC(=O)CSC[C@@H](C(=O)N[C@@H](C)C(N)=O)NC(=O)[C@H]([C@@H](C)O)NC(=O)[C@H](C(C)C)NC1=O [Compound 1359] ({CH2CO}-QYDWV[Bip]V[NMeA][dL][Dab]LVTCA-NH2; thioether N-14)
2. CC(C)C[C@@H]1NC(=O)[C@H](CCCNC(=N)N)NC(=O)[C@@H](CC(N)=O)NC(=O)[C@H](C)N(C)C(=O)[C@H](CCCNC(=N)N)NC(=O)[C@H](Cc2ccc(-c3ccccc3)cc2)NC(=O)[C@H](C(C)C)NC(=O)[C@H](Cc2c[nH]c3ccccc23)NC(=O)[C@H](CC(=O)O)NC(=O)[C@H](Cc2ccc(O)cc2)NC(=O)[C@H](Cc2ccccc2)NC(=O)CSC[C@@H](C(=O)NCC(N)=O)NC(=O)[C@H](CO)NC(=O)[C@H](C(C)C)NC1=O [Compound 1019] ({CH2CO}-FYDWV[Bip]R[NMeA][dN]RLVSCG-NH2; thioether N-14)
3. COc1cccc(C[C@@H]2NC(=O)[C@H](Cc3ccccc3)NC(=O)CSC[C@@H](C(=O)N[C@@H](C)C(N)=O)NC(=O)[C@H](CO)NC(=O)[C@H](C(C)C)NC(=O)[C@H](CC(C)C)NC(=O)[C@H](CC(N)=O)NC(=O)[C@@H](C)NC(=O)[C@H](C)N(C)C(=O)[C@H](C(C)C)NC(=O)[C@H](Cc3ccc(-c4ccccc4)cc3)NC(=O)[C@H](CC(C)C)NC(=O)[C@H](Cc3c[nH]c4ccccc34)NC(=O)[C@H](CC(=O)O)NC2=O)c1 [Compound 1732] ({CH2CO}-F[Phe(3-OMe)]DWL[Bip]V[NMeA][dA]NLVSCA-NH2; thioether N-14)

Resp:
0.05
0.36
0.01
